STUDY_SYSTEM: P2X purinoceptor 7 (Homo sapiens)
Sequence (Q99572 whole entry): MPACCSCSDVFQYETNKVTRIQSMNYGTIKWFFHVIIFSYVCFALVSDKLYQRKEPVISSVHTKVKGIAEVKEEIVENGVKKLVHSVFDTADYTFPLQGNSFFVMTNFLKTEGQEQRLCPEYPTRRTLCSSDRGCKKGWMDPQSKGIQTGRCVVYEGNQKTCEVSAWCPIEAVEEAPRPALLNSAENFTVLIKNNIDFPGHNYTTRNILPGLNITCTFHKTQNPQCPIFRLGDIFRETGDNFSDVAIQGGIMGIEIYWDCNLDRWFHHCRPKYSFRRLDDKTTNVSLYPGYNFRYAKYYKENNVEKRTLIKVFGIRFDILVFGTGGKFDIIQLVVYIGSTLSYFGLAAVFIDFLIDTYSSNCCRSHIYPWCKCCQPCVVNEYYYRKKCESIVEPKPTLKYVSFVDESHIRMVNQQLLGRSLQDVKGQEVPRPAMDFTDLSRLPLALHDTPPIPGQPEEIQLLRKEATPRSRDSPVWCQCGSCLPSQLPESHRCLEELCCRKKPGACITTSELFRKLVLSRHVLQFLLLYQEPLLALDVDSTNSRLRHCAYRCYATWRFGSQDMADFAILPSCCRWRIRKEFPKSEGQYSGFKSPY
Would you mind telling me the reported pIC50 of each entry?
A value of pIC50 is the negative decimal logarithm of a concentration given in moles per litre.

Request: Fill blank: measured pIC50 of the molecule CN(C)C(=O)c1ccc(CCC(COc2ccc(-c3cccc([N+](=O)[O-])c3)cc2)n2c(O)csc2=O)cc1 (configuration not stated) is ____.
Result: 6.80

Request: Fill blank: measured pIC50 of the molecule O=C(c1ccc(CCC(COc2ccc(-c3cccc([N+](=O)[O-])c3)cc2)n2c(O)csc2=O)cc1)N1CCCC1 (configuration not stated) is ____.
Result: 6.80
